Reported IC50 values for the following compounds.
- assay_system: human CTPS1 (Homo sapiens)
- Sequence (P17812 whole entry): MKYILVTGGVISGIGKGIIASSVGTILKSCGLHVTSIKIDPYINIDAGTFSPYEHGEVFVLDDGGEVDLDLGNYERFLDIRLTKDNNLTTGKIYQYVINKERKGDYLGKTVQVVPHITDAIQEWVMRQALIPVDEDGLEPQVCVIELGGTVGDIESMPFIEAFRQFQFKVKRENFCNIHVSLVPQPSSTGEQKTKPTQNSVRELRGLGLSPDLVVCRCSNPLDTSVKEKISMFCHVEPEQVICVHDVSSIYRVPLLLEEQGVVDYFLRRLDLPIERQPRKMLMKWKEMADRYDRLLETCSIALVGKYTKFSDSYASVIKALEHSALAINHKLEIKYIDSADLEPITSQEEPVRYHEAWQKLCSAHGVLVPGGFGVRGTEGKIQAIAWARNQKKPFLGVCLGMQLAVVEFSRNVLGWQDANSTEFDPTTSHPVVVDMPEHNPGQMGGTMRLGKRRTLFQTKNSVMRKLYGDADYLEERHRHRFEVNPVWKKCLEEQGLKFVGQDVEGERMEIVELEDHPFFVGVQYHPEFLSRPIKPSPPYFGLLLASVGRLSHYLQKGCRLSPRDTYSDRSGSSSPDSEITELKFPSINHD
- experiment_summary: ADP-Glo assay, human CTPS1 enzyme inhibition
- Format: biochemical
- applied_conditions: wild-type human CTPS1, 25 nM enzyme; ADP-Glo; read-out: ADP-Glo_WT_hCTPS1—25 nM_IC50 (IC50)

Known results for compounds:
CCOc1cncc(-c2cnc(C(=O)N[C@H](CCN3CCCC4(CC4)C3)c3cc(NS(=O)(=O)C4CC4)ccn3)s2)n1 (single isomer, unassigned) [I-17] :: ≤ 5 nM
O=C(N[C@@H](c1cc(NS(=O)(=O)C2CC2)ccn1)[C@@H]1CCOC1)c1ncc(-c2cnn3ccc(Cl)cc23)s1 (single isomer, unassigned) [I-24] :: 5 to 25 nM
CCOc1cncc(-c2cnc(C(=O)N[C@@H](c3cc(NS(=O)(=O)C4CC4)ccn3)[C@H]3CC(=O)N(C)C3)s2)n1 [I-122] :: 5 to 25 nM
CCOc1cncc(-c2cnc(C(=O)N[C@@H](c3cc(NS(=O)(=O)C4CC4)ccn3)C3CCOCC3)s2)n1 [I-19] :: 5 to 25 nM
CCOc1cncc(-c2cnc(C(=O)N[C@@H](C)c3cc(NS(=O)(=O)C4CC4)ccn3)s2)n1 [I-177] :: 5 to 25 nM
CCOc1cncc(-c2ccc(C(=O)N[C@H](c3cc(NS(=O)(=O)C4CC4)ccn3)[C@@H]3CCCO3)nc2)n1 [I-68] :: 25 to 50 nM
CCOc1cncc(-c2cnc(C(=O)N[C@@H](c3cc(NS(=O)(=O)C4CC4)ccn3)[C@@H](C)CO)s2)n1 [I-226] :: 5 to 25 nM
CCOc1cncc(-c2cnc(C(=O)N[C@@H](c3cccc(NS(=O)(=O)C(F)F)c3)[C@@H](C)O)s2)n1 [I-287] :: 5 to 25 nM

Item CCOc1cncc(-c2cnc(C(=O)N[C@@H](Cn3nccn3)c3cc(NS(=O)(=O)C4CC4)ccn3)s2)n1 [I-157] has what recorded IC50?
25 to 50 nM

Requested field: IC50. Item: CCOc1cncc(-c2cnc(C(=O)N[C@H](CO)c3cc(NS(=O)(=O)C4CC4)ccn3)s2)n1 [I-263]
5 to 25 nM

Which value of IC50 has been reported for CCOc1cncc(-c2cnc(C(=O)N[C@H](c3cc(NS(=O)(=O)C4CC4)ccn3)[C@@H](C)CN3CCCCC3)s2)n1 (stereo in doubt) [I-54] in the records?
5 to 25 nM

Suppose we examine the compound CCOc1cncc(-c2cnc(C(=O)N[C@@H](c3cc(NS(=O)(=O)C4CC4)ccn3)[C@@H]3CCN(C4CC4)C3)s2)n1 [I-114] ; what IC50 value has been reported?
5 to 25 nM

Field request: IC50 | item: CCOc1cncc(-c2ccc(C(=O)N[C@H](COC)c3cc(NS(=O)(=O)C4CC4)ccn3)c(F)c2)n1 [I-283]
50 to 100 nM

// IC50 lookup, key: CCOc1cncc(-c2cnc(C(=O)N[C@H](CN3CCOC[C@H]3C)c3cc(NS(=O)(=O)C4CC4)ccn3)s2)n1 (single isomer, unassigned) [I-33]
5 to 25 nM

Every entry's value here was drawn from patent US20250270200A1.
